# Tested Target: T1, human TREM2 (human, UniProt Q9NZC2 19-230)
# T1 construct: on THP-1 WT cells and M2a-like macrophages (endogenous) and on CHO or HEK293T cells overexpressing human TREM2 with DAP12; also called hTREM2
# T1 sequence: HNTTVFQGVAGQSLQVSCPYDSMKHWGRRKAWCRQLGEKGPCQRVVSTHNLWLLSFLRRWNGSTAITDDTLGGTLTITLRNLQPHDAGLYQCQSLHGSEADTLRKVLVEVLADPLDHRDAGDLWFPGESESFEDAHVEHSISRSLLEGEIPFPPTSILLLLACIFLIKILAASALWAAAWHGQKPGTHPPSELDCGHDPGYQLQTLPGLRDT
# Experiment Description: flow cytometry, M2a-like macrophages
I'd be grateful if you could share measured Fold over isotype for these entries.
Express the result in fold but write the number alone.

// Input: EOS006173 (antibody, V domains shown, also called EOS061730) VH: EVQLVESGGGLVQPGRSLRLSCTASGFTFGDYAMSWFRQAPGKGLEWVGFIGSKAYGGTTEYTASVKGRFTISRDGSKSIAYLQMNSLKTEDTAVYYCARGKRRDYGYWHPAFDVWGQGTMVTVSS VL: DIQMTQSPSSLSASVGDRVTITCQASQDITNYLNWYQQKPGKAPKLLIYDASNLETGVPSRFSGSGSGTDFTFTISSLQPEDIATYYCQEYDQYLTFGGGTKVEIK . Output its Fold over isotype only.
8.2

Give Fold over isotype for EOS006164 (antibody, V domains shown) VH: EVQLVESGGGLVQPGRSLRLSCTASGFTFDDYTMSWFRQAPGKGLEWVGFIGSKAYSATTEYTASVKGRFTISRDGSKSIAYLQMNSLKTEDTAVYYCARGKRYSYTYWTPAFDVWGQGTMVTVSS VL: DIQMTQSPSSLSASVGDRVTITCQASQDITNYLNWYQQKPGKAPKLLIYDASNLETGVPSRFSGSGSGTDFTFTISSLQPEDIATYYCQEYDSYITFGGGTKVEIK
12.9

Output measured Fold over isotype for this item: EOS006165 (antibody, V domains shown) VH: QVQLVQSGAEVKKPGSSVKVSCKASGGTFSSYAISWVRQAPGQGLEWMGGIIPISGTANYAQKFQGRVTITADESTSTAYMELSSLRSEDTAVYYCARTQEYTAFDIWGQGTMVTVSS VL: EIVLTQSPATLSLSPGERATLSCRASQSVSSYLAWFQQKPGQAPRLLIYDASNRATGIPARFSGSGSGTDFTLTISSLEPEDFAVYYCQQDYHWPITFGGGTKVEIK
2.2

Please supply the value of reported Fold over isotype for the item EOS006175 (antibody, V domains shown) VH: QVQLQESGPGLVKPSGTLSLTCAVSGGSISSSNWWSWVRQPPGKGLEWIGEIYHSGSTNYNPSLKSRVTISVDKSKNQFSLKLSSVTAADTAVYYCARDTKYWGGMDVWGQGTTVTVSS VL: DIQMTQSPSSLSASVGDRVTITCQASQDISNYLNWYQQKPGKAPKLLIYDASNLATGVPSRFSGSGSGTDFTFTISSLQPEDIATYYCQQYVEAPTFGGGTKVEIK
5.8

Data provenance is patent US20250282868A1.
